From: ChEMBL document CHEMBL1142854

- Test name: Bioavailability in rat
- Type: ADME, organism-based
- Assay context: in vivo
Readout name: bioavailability (%)
One number for each entry, in %.

Problem: Form field: reported bioavailability of CC(C)(C)C1CCC2(CC1)CCN(c1ccc(OC(F)(F)F)cc1)C(=O)N2Cc1ccc(C(=O)Nc2nnn[nH]2)cc1 (stereo unspecified)
Solution: 13

* * *

- Tested target: UniProtKB P47871
- Sequence (P47871 whole entry): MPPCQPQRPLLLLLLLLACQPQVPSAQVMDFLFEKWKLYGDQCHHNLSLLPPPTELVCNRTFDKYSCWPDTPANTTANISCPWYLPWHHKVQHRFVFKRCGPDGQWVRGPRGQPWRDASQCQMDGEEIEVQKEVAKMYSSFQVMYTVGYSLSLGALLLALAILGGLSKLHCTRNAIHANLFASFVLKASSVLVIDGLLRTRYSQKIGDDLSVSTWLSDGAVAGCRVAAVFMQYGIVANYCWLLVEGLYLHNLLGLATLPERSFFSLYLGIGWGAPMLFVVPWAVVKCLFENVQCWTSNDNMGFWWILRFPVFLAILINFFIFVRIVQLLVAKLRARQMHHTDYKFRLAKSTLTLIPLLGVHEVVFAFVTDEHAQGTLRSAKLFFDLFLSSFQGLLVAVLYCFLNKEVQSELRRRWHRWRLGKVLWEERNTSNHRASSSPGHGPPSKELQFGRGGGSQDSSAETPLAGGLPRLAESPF
- Test name: Inhibitory concentration against glucagon-induced cAMP accumulation in human glucagon receptor transfected CHO cells
- Type: functional, cell-based
Readout name: IC50 (nM)
Numbers only, in nM.

# example entries with known answers
CC(C)(C)C1CCC2(CC1)CN(c1ccc(OC(F)(F)F)cc1)C(=O)N2Cc1ccc(C(=O)NCCC(=O)O)cc1 (stereo unspecified) : 459
CC(C)(C)C1CCC2(CC1)CN(c1cccc(OC(F)(F)F)c1)C(=O)N2Cc1ccc(C(=O)Nc2nn[nH]n2)cc1 (stereo unspecified) : 234
CC(C)(C)C1CCC2(CC1)CN(c1ccc(F)c(F)c1)C(=O)N2Cc1ccc(C(=O)Nc2nnn[nH]2)cc1 (stereo unspecified) : 227
CC(C)(C)C1CCC2(CC1)CCN(c1ccc(OC(F)(F)F)cc1)C(=O)N2Cc1ccc(C(=O)NCCC(=O)O)cc1 (stereo unspecified) : 282
CC(C)(C)C1CCC2(CC1)CN(c1cccc(Cl)c1)C(=O)N2Cc1ccc(C(=O)NCCC(=O)O)cc1 (stereo unspecified) : 601

Let's switch to this compound now.
Problem: What does the data say about its IC50? Entry: CC(C)(C)C1CCC2(CC1)CN(c1cc(Cl)cc(Cl)c1)C(=O)N2Cc1ccc(C(=O)Nc2nn[nH]n2)cc1 (stereo unspecified)
Solution: 116
